Numbers sourced from BigSolDB 2.1.

conditions: in 2-butoxyethanol, 303.15 K
readout: solubility (mole fraction)
Please give the numeric answer without any surrounding text.

q: Fill in the blank: the reported solubility (mole fraction) of Cl.N=C(N)N is ____.
a: 0.169

====

conditions: in DMF, 283.15 K
readout: solubility (mole fraction)
Please give the numeric answer without any surrounding text.

q: Fill in the blank: the reported solubility (mole fraction) of Cl.N=C(N)N is ____.
a: 0.345

====

details: in ethanol, 318.15 K
readout: solubility (mole fraction)
Please give the numeric answer without any surrounding text.

q: Fill in the blank: the reported solubility (mole fraction) of Cl.N=C(N)N is ____.
a: 0.163

====

conditions: in 2-ethoxyethanol, 303.15 K
readout: solubility (mole fraction)
Please give the numeric answer without any surrounding text.

q: Fill in the blank: the reported solubility (mole fraction) of Cl.N=C(N)N is ____.
a: 0.308
